Measured values drawn from PubChem BioAssay (NCI) for this set.

# Tested on: MDA-MB-231 breast
# TEST METHOD NOTES: NCI-60 one-dose screen, 48 h (100 = growth as untreated, 0 = no growth, -100 = all killed)
# STATED CONDITIONS: 10 µM unless noted
About 83,000 compounds went through this panel and 20% of them were active in at least one assay; those are over-represented in the sample as a whole.

{"SMILES INPUT": "Nc1ccc(-n2c(=O)oc3ccc(Cl)cc3c2=O)c(Cl)c1", "TARGET OR SYSTEM": "MDA-MB-231 breast", "UNIT LABEL": "%", "growth": -25.6}
{"SMILES INPUT": "Cc1sc2ncnc(Sc3nc4ccccc4[nH]3)c2c1C", "TARGET OR SYSTEM": "MDA-MB-231 breast", "UNIT LABEL": "%", "growth": -79.5}
{"SMILES INPUT": "O=c1oc2ccc(I)cc2c(=O)n1-c1ccc(Cl)cc1F", "TARGET OR SYSTEM": "MDA-MB-231 breast", "UNIT LABEL": "%", "growth": -12.6}
{"SMILES INPUT": "CN1CCN(Cc2ccc(C(=O)Nc3cncc(C#Cc4cnc5cccnn45)c3)cc2C(F)(F)F)CC1", "TARGET OR SYSTEM": "MDA-MB-231 breast", "UNIT LABEL": "%", "growth": 41}
